measuredAttribute: melting point

1. O=C(c1nnc(-c2ccccc2)o1)N1CC(Oc2ccc(CN3CC4(COC4)C3)c(Cl)c2)C1 ... 114 to 124 °C
2. CCCc1c(OCCCCCC(=O)NCCc2cccnc2)ccc(C(C)=O)c1O ... 76 to 78 °C
3. CC(O)c1ccc(OCCCCl)c(O)c1 (stereo not given) ... 107 to 109 °C
4. O=C(Nc1ccc(Cl)c(C(F)(F)F)c1)Nc1ccc2ncsc2c1 ... 225 to 228 °C
5. C[C@@H](n1cnc2cc(NCc3ccccc3)ccc2c1=O)[C@](O)(Cn1cncn1)c1ccc(F)cc1F ... 100 to 107 °C
6. O=C(O)c1cc(=O)c(Sc2ccccc2)co1 ... 178 to 181 °C
7. CCC(=C(c1ccc(O)cc1)c1ccc(O)cc1)c1ccc(OCCO)c(OC)c1 ... 158 to 159 °C
8. CCN(CC)c1nc(N)c2cc(OC)c(OC)cc2n1 ... 167 to 169 °C
9. Cc1cccc(OCC(=S)NCCNC(=S)Nc2ccccc2)c1C ... 112 to 113 °C
10. CCCCCN1C(=O)C(O)(c2cc3c(cc2O)OCO3)c2cnccc21 (stereo not given) ... 193 to 195 °C

====

The entries below are paired with their reported melting point.
measuredAttribute: melting point

1) N#CC(C(N)=O)c1ccccc1 (centres undefined) ... 148 to 150 °C
2) Cc1cc(Cl)ccc1N=c1scc(-c2ccc(Cl)c(S(=O)(=O)N(C)C)c2)n1C ... 137 to 141 °C
3) Cc1cccnc1C(CO)COc1ccc(CC2SC(=O)NC2=O)cc1 (centres undefined) ... 182 to 183 °C
4) COc1cc2c(cc1OC)CC(N(C)CCCN1CCc3cc4c(cc3CC1=O)OCCO4)CC2 (centres undefined) ... 152 to 157 °C
5) O=C(OCC(Cl)(Cl)Cl)N1CCC(=C2c3ccccc3Oc3ccccc32)CC1 ... 132 to 134 °C
6) CN(C)CCNc1cc(CNc2ccccc2C(=O)Nc2cccc(C(F)(F)F)c2)ccn1 ... 100 °C
7) COc1ccccc1Cn1c(=O)c2c(N3CCNCC3)cc(Cl)cc2n(Cc2ccccc2)c1=O ... 122 to 125 °C
8) C#CCCCn1ncc2c(OCC)c(C(=O)OCC)cnc21 ... 84 to 85.5 °C
9) CCOC(=O)C(C)Oc1ccc2cc(Oc3c(Cl)cc(C(F)(F)F)cc3Cl)ccc2c1 (centres undefined) ... 118 to 120 °C

====

measuredAttribute: melting point

1) COc1ccc(S(=O)(=O)Nc2ccccc2NC(C)=O)cc1 ... 160 to 161 °C
2) CN1CCN(Cc2ccc3nc(-c4ccc(Cl)c(C#Cc5cnc6cccnn56)c4)[nH]c3c2)CC1 ... 156 to 157 °C
3) C/C=C/CNc1cccc(-c2ccnc3c(C(=O)c4cccs4)cnn23)c1 ... 110 to 113 °C
4) CN1CCC(O)(C2CC(c3ccc(-c4ccc(N5C[C@H](Cn6ccnn6)OC5=O)cc4F)cn3)=NO2)CC1 (stereo partly specified) ... 73 °C
5) CN1CC(=O)Nc2ccc(Cl)c(F)c2C1=O ... > 250 °C
6) OC(c1ccc(F)cc1)(c1ccc(F)cc1)C1CCNCC1 ... 160 °C
7) COC(=O)CCCCNC(=O)C[C@H]1O[C@H](c2cccc(OC)c2OC)c2cc(Cl)ccc2N(CC(C)(C)CO)C1=O ... 84 to 85 °C
8) COc1ccc(N2CCOCC2)cc1NC(=S)C(=O)O ... 156 to 158 °C
9) C=CCOc1cccc2oc(C(=O)OCC)c(C)c12 ... 64 to 65 °C
10) Oc1ccc(Nc2ccncc2)cc1 ... 246 to 248 °C
11) CNC(=O)C(=NOC)c1cc(C)c(C)cc1C(ON)=C(C)c1cccc(C(F)(F)F)c1 ... 129 to 134 °C
12) C1=C(c2cccc3[nH]ccc23)CNCC1 ... 156 °C
13) COc1ccc(CN2Cc3cncn3C(c3ccc(Br)cc3)C2=O)cc1 (stereo unspecified) ... 123 to 124 °C
14) Cn1c(=O)c(-c2ccc(Cl)cc2Cl)cc2c3cc(-c4ccn[nH]4)ccc3n(C)c21 ... 281 to 282 °C
15) COc1cc2c(Nc3ccc(Oc4ccccc4)cc3)c(C#N)cnc2cc1OCCCl ... 148 to 151 °C
16) COC(=O)c1ccc2oc(=O)n(Cc3cccc(-c4ncc(OCCCN(C)C)cn4)c3)c2c1 ... 125 °C
17) Cc1oc(-c2ccccc2)nc1CCOc1ccc(CCC#N)cc1 ... 109 to 110 °C
18) CN(C)C(=O)n1nc(N)c2ccc(Cl)cc21 ... 170 to 172 °C
19) O=C(c1ccc(I)cc1)c1ccc(-c2ccc(Cl)cc2)cc1 ... 218 °C
20) Oc1c(C2CCCC2)cc(C2CCCC2)cc1C1CCCC1 ... 104 °C
21) CCC(=O)N=C(Nc1c(Cl)cccc1Cl)SC ... 165 to 170 °C
